// data source = ChEMBL document CHEMBL3576869

biological target: Phosphatidylinositol 4,5-bisphosphate 3-kinase catalytic subunit gamma isoform (Homo sapiens); assay: Inhibition of PI3Kgamma (unknown origin) using PIP2/PS as substrate after 1 hr by luciferase-based luminescence assay
Sequence (P48736 whole entry, canonical isoform): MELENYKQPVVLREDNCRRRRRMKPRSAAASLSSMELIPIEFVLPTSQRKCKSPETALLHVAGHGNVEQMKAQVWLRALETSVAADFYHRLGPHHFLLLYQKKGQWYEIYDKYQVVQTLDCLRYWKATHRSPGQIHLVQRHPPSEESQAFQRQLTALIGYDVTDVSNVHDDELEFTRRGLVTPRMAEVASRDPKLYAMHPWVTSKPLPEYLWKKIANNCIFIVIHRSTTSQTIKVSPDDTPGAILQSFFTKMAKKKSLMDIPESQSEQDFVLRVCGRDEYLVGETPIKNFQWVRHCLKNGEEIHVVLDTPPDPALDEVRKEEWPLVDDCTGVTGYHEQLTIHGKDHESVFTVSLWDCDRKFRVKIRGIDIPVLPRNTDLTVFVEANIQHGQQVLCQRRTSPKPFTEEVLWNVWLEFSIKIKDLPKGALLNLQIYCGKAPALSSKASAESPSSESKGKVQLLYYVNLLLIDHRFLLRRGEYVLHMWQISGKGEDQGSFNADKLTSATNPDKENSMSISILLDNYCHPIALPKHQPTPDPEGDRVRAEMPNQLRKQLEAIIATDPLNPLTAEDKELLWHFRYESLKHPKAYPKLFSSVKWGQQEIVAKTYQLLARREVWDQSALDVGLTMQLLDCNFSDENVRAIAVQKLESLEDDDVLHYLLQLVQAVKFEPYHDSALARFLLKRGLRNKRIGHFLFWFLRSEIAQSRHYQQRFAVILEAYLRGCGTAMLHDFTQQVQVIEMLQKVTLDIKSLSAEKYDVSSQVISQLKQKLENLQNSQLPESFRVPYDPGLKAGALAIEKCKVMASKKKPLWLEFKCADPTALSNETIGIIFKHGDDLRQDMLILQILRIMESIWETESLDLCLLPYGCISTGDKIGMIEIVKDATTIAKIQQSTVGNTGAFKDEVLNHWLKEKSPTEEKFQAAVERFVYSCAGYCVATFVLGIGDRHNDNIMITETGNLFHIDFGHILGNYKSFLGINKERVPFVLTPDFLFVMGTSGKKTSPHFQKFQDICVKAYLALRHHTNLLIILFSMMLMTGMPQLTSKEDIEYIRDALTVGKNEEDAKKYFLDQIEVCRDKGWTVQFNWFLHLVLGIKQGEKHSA
pIC50: −log10 of the molar value.
RECORDED_METRIC: pIC50

[P] O=S(=O)(Nc1cc(-c2cc3c(-c4ccncc4)ncnc3s2)cnc1Cl)c1ccc(F)cc1F
[Q] COc1ncc(-c2cc3c(-c4ccncc4)ncnc3s2)cc1NS(=O)(=O)c1ccc(F)cc1F
Which of the two gives a bigger number for pIC50: P or Q ? Mark your selection by writing its label. P

* * *

system: SK-OV-3; assay: Cytotoxicity against human SKOV3 cells harboring PIK3CA mutant assessed as growth inhibition after 4 days by CellTiter-Glo luminescent cell viability assay; format: functional, cell-based; conditions: SK-OV-3, 96 h
RECORDED_METRIC: pIC50
Worth noting: pIC50 values are minus log10 of concentrations stated in mol/L.

# RECORD_SMILES, VALUE_MEASURED
data = [
    ("O=S(=O)(Nc1cc(-c2cc3c(-c4ccncc4)ncnc3s2)cnc1Cl)c1ccc(F)cc1F", 5.28),
]

Give its pIC50 value. Item: `COc1ncc(-c2cc3c(-c4ccncc4)ncnc3s2)cc1NS(=O)(=O)c1ccc(F)cc1F` 5.43
